tested_target: Adenosine receptor A1 (Homo sapiens)
experimental_details: Displacement of [3H]DPCPX from human adenosine A1 receptor expressed in CHO cells at 10 uM after 60 mins
Type: cell-based
reported_endpoint: inhibition (%)
One number for each entry, in %.

In [3]: df
Out[3]:
                                  compound  value
0  CC(=O)C1=C(C)NC(=O)NC1c1ccco1 (racemic)     30

Hey, quick one: what's inhibition for each of these?
1. CCCOC(=O)C1=C(C)NC(=O)NC1c1ccco1 (racemic)
2. CC1=C(C(=O)OC(C)C)C(c2cccs2)NC(S)=N1 (racemic)
3. CC1=C(C(=O)OC(C)C)C(c2cccs2)NC(=O)N1 (racemic)

Outgoing:
1. 43
2. 23
3. 37

Hey, quick one: what's inhibition for each of these?
1. CCOC(=O)C1=C(C)NC(=O)NC1c1ccoc1 (racemic)
2. COC(=O)C1=C(C)NC(=O)NC1c1ccco1 (racemic)
3. CCOC(=O)C1=C(C)N(C)C(=O)NC1c1ccoc1 (racemic)
4. CCOC(=O)C1=C(c2ccccc2)NC(=O)NC1c1ccco1 (racemic)

Outgoing:
[21, 34, 17, 3]
